Test system: DMS 114 small cell lung
Test: NCI tumour cell line growth inhibition, 48 h
READOUT TYPE: TGI

Example results:
COMPOUND	TGI
C/C(=N\N=C(\[Se])N(C)C)c1ccccn1	< 0.01 µM
CCCCN[C@H]1C2C3CC4C5CC(C42)C1(C)C53 (stereo partly specified)	> 100 µM
COc1ccc2c(c1)CC1c3c(ccc(OC)c3O)CC2N1C (stereo unspecified)	38.8 µM
CC1(S)CC2C(CC1Sc1ccccc1)C2(C)C (stereo unspecified)	> 100 µM
COC(=O)N/N=C(/CCC(=O)Nc1ccc(C)c(C)c1)CC(=O)C(C)(C)C	> 100 µM
Cc1cc(=O)[nH]c(NNC(C#N)c2c(O)ccc3ccccc23)n1 (stereo unspecified)	5.81 µM
COc1ccc(/C=c2/sc3n(c2=O)NC2(CCC(C)CC2)NN=3)cc1 (stereo unspecified)	> 100 µM
CSc1nc(NC2OC(COC(C)=O)C(OC(C)=O)C(OC(C)=O)C2OC(C)=O)c(-c2csc(N)n2)c(=O)n1C (stereo unspecified)	> 100 µM
C=C1C2CC(OC(C)=O)C3(C)C(c4ccoc4)OC(=O)[C@@H](O)[C@]13OC1C[C@H](OC(C)=O)C(C)(C)[C@H](CC(=O)OC)[C@]12C (stereo partly specified)	> 100 µM
Cc1ccc(C(O)(c2ccc(C)cc2)c2ccccn2)cc1	> 100 µM

Shifting focus to the compound that follows.
Exam item: Return TGI (reported value) for this compound: `O=[N+]([O-])c1ccc(/C=C/c2csnn2)cc1`
Marked response: > 100 µM

----------
System: OVCAR-5 ovarian
Assay: NCI tumour cell line growth inhibition, 48 h
READOUT TYPE: GI50

Report GI50 for each item below.
1. Cc1ccc(C2=C(c3ccc(C)cc3)C3(c4ccc(C)cc4)C4C(=O)c5ccccc5C(=O)C4C2(c2ccc(C)cc2)S3=O)cc1 (configuration not stated)
2. C[n+]1c(-c2ccc(/C=N/NC(=O)c3ccc(C(=O)N/N=C/c4ccc(-c5cn6ccccc6[n+]5C)cc4)cc3)cc2)cn2ccccc21
3. COc1ccc2c(Cl)cc(NC(=O)Nc3c(C)cccc3C)nc2c1
4. N#Cc1c(N)nc(N)nc1N[C@H](c1nc2c(F)ccc(Cl)c2c(=O)n1-c1cccnc1)C1CC1
5. COC1C(OC(=O)/C=C/C=C/C=C/C=C\C(=O)O)CCC2(CO2)C1C1(C)OC1CC=C(C)C (configuration not stated)
6. Cc1[nH]nc2c1N=C(c1ccccc1F)c1cc(C(N)=O)ccc1N2
7. CN1CCN(c2nc(NCCCNc3ccnc4cc(Cl)ccc34)c3ccccc3n2)CC1

Marked response:
["> 100 µM", "> 1000 µM", "> 100 µM", "2.72 µM", "> 200 µM", "9.61 µM", "4.17 µM"]

For every listed record, write down its GI50.
1. CCCNC(=O)c1ccc(Cl)cc1Cl
2. CCCCC(=O)N/N=C/c1c(O)ccc2ccccc12
3. Cn1c2ccccc2c2c3[nH][nH]c(=O)c3c3c4ccccc4[nH]c3c21
4. C/C=C/[C@H]1O[C@@H]2C(=C[C@H]1O)C(=O)O[C@H]2C

Marked response:
1: > 100 µM; 2: 6.97 µM; 3: 4.21 µM; 4: 23.2 µM

Exam item: Please report the measured GI50 for C=CC/C(=C\COP(=O)(OCc1ccc([N+](=O)[O-])o1)N(C)CCCCCl)CC/C=C(\C)CCC=C(C)C (configuration not stated)
Marked response: 15.7 µM
